# System: MCF7
# TEST DESCRIPTION: NCI tumour cell line growth inhibition, 48 h
The source made the active and inactive calls. Cut-off read from the data, not from the text of the source: active = GI50 up to about 1.1 µM and inactive = higher.
RECORDED METRIC: GI50

Here are 3 compounds together with their reported answers.
COMPOUND: O=C(O)CSC(CC(=O)c1ccc(Cl)cc1)c1ccc(Cl)cc1 (stereo not drawn)
GI50: 22.2 µM (inactive)
//
COMPOUND: CC(=O)OCC(Br)C1(C)CCC(C(C)(C)Br)O1 (stereo not drawn)
GI50: 56.4 µM (inactive)
//
COMPOUND: C[C@@H]1CC[C@H]2C(C)(C)[C@H]3C[C@@]12CC[C@@]3(C)O [CEDROL]
GI50: > 100 µM (inactive)

Could you tell me GI50 for each of these compounds? They are listed below.
1. NCC#CCNCCCN1CC1
2. CN1CCc2cc(N)cc3c2C1Cc1ccc2c(c1-3)OCO2 (stereo not drawn)
3. O=[N+]([O-])/C(C(Cl)=C(Cl)Cl)=C(\N1CCOCC1)n1nnc2ccccc21
4. COc1cc(/C=C2\N=C(c3ccccc3)N(c3nc4ccccc4s3)C2=O)cc(OC)c1OC
5. CC(C(=O)O)C1Nc2ccccc2NC1=O (stereo not drawn)
6. O=C1CSC2(CC(/C=C/c3cccc([N+](=O)[O-])c3)=NN2c2cccc(S(=O)(=O)O)c2)N1c1nc2ccccc2s1 (stereo not drawn)
7. CCOC(=O)/C=C/CCC(C)(C)COC(C)=O
8. COC(=O)/C=C/N1CC1

Result:
> 100 µM (inactive)
29.4 µM (inactive)
19.7 µM (inactive)
31.3 µM (inactive)
> 100 µM (inactive)
17.6 µM (inactive)
> 10 µM (inactive)
> 10 µM (inactive)

Could you tell me GI50 for each of these compounds? They are listed below.
1. O=C1c2ccccc2C(=O)c2c(OCCOCCO)cccc21
2. FC(F)(F)c1ccc(/N=C/C=C(/Nc2ccc(C(F)(F)F)cc2)c2ccc(Cl)cc2)cc1

Result:
1: 74.6 µM (inactive); 2: 17.5 µM (inactive)

meta.source: ChEMBL document CHEMBL1201862
